B1: Caulobacter ParB omega fusion; a variant is named by its letters at X, in order, B8GW30 (parent)
chain: MESVVVGEPGMSEGRRGLGRGLSALLGEVDAAPAQAPGEQLGGSREAPIEILQRNPDQPRRTFREEDLEDLSNSIREKGVLQPILVRPSPDTAGEYQIVAGERAWRAAQRAGLKTVPIMVRELDDLAVLEIGIIENVQRADLNVLEEALSYKVLMEKFERTQENIAQTIGKSXSHVANXMRLLXLPDEVQSYLVSGELTAXHARAIAAAADPVALAKQIIEGGLSVRETEALARKAPNLSAGKSKGGRPPRVKDTDTQALESDLSSVLGLDVSIDHRGSTGTLTITYATLEQLDDLCNRLTRGI

Variants of: B1
Assay: one-hybrid fitness for binding parS DNA (scaled: cognate 1, non-cognate 0); higher = stronger binding
Settings: with parS DNA site
In all, about 81,000 sequences were measured (“one-hybrid fitness for binding parS DNA”: median about -0.17, highest 2% from about 0.51 on). For the sample, the highest values were picked, then their nearest neighbours and some sequences at random.
Here, each record is paired with measured one-hybrid fitness for binding parS DNA data.

Before answering, review these 3 worked examples.
RRST; 0.54
MRTY; ≤ 0.2
MCDC; ≤ 0.2

# input Fill blank: measured one-hybrid fitness for binding parS DNA of the variant "RHTC" is ____.
# output 0.946

# input Request the reported one-hybrid fitness for binding parS DNA associated with "RIAH"
# output 0.279

# input Give its one-hybrid fitness for binding parS DNA value. Item: "CPED"
# output ≤ 0.2

# input Using the record for "PTQT" , report its one-hybrid fitness for binding parS DNA.
# output ≤ 0.2

# input Fill in: one-hybrid fitness for binding parS DNA of "ERKR" is ___
# output ≤ 0.2
